meta.source: patent EP0354042A2

Each entry below carries its recorded Blood sugar value measured 10 minutes after the test.
# Tested on: Wistar male rats
# procedure_text: Saccharide tolerance test (pancreas function) of rats given CsA with the present substance
# Assay type: in vivo
# condition_notes: CsA 25 mg/kg/day i.p. 3 weeks plus present substance 300 mg/kg/day orally
property: Blood sugar value measured 10 minutes after the test (mg/dL)

compound	measured
O=C(O)c1ccc(NC2OC[C@@H](O)[C@H](O)[C@H]2O)cc1 (stereo partly drawn) [Compound 6, p-Aminobenzoic acid-N-D-xyloside]	598
O=C(O)c1ccc(NC2O[C@H](CO)[C@H](O)[C@H](O)[C@H]2O)cc1 (stereo partly drawn) [Compound 14, p-Aminobenzoic acid-N-D-galactoside]	584
O=C(O)c1ccc(NC2OC[C@H](O)[C@H](O)[C@H]2O)cc1 (stereo partly drawn) [Compound 2, p-Aminobenzoic acid-N-L-arabinoside]	588
O=C(O)c1cccc(NC2O[C@H](CO)[C@@H](O)[C@H](O)[C@@H]2O)c1 (stereo partly drawn) [Compound 24, m-Aminobenzoic acid-N-D-mannoside]	578
O=C([O-])c1ccccc1NC1OCC(O)C(O)C1O.[Na+] [Compound 4, o-Aminobenzoic acid-N-L-arabinoside]	591
C[C@@H]1OC(Nc2ccc(C(=O)O)cc2)[C@H](O)[C@H](O)[C@H]1O (stereo partly drawn) [Compound 18, p-Aminobenzoic acid-N-L-rhamnoside]	573

* * *

# Tested on: TA98 of Salmonella typhimurium
# procedure_text: Reversion assay (reversion colony test) TA98
# Type: cell-based
# condition_notes: 5,000 µg/disk, 37°C for 2 days; Drug-free Control 13
# Description: In addition, a reversion assay was performed using TA98 and TA100 of Salmonella typhimurium (both are histidine-requiring bacteria). 10% by volume of 0.5 mM bithion solution containing 0.5 mM histidine was added to a soft agar solution (prepared with 6g of NaCl, 6g of agar and 1,000 ml of distilled water). […] The medium layered was cultured at 37°C for 2 days and number of reversion colonies was counted. […]

compound	target_desc	No. of Reversion Colony TA98
O=C([O-])c1ccccc1NC1O[C@H](CO)[C@@H](O)[C@H](O)[C@H]1O.[Na+] (stereo partly drawn) [Compound 12, o-Aminobenzoic acid-N-D-glucoside]	TA98 of Salmonella typhimurium	5 n/plate
O=C(O)c1ccccc1NC1OC[C@@H](O)[C@H](O)[C@H]1O (stereo partly drawn) [Compound 8, o-Aminobenzoic acid-N-D-xyloside]	TA98 of Salmonella typhimurium	4 n/plate
O=C(O)c1ccc(NC2O[C@H](CO)[C@H](O)[C@H](O)[C@H]2O)cc1 (stereo partly drawn) [Compound 14, p-Aminobenzoic acid-N-D-galactoside]	TA98 of Salmonella typhimurium	7 n/plate
O=C([O-])c1ccccc1NC1O[C@H](CO)[C@H](O)[C@H](O)[C@H]1O.[Na+] (stereo partly drawn) [Compound 16, o-Aminobenzoic acid-N-D-galactoside]	TA98 of Salmonella typhimurium	6 n/plate
C[C@@H]1OC(Nc2ccc(C(=O)O)cc2)[C@H](O)[C@H](O)[C@H]1O (stereo partly drawn) [Compound 18, p-Aminobenzoic acid-N-L-rhamnoside]	TA98 of Salmonella typhimurium	4 n/plate
O=C(O)c1ccc(NC2O[C@H](CO)[C@@H](O)[C@H](O)[C@H]2O)cc1 (stereo partly drawn) [Compound 10, p-Aminobenzoic acid-N-D-glucoside]	TA98 of Salmonella typhimurium	11 n/plate
O=C(O)c1ccc(NC2O[C@H](CO)[C@@H](O)[C@H](O)[C@@H]2O)cc1 (stereo partly drawn) [Compound 22, p-Aminobenzoic acid-N-D-mannoside]	TA98 of Salmonella typhimurium	5 n/plate
O=C(O)c1cccc(NC2O[C@H](CO)[C@@H](O)[C@H](O)[C@@H]2O)c1 (stereo partly drawn) [Compound 24, m-Aminobenzoic acid-N-D-mannoside]	TA98 of Salmonella typhimurium	6 n/plate
O=C(O)c1ccc(NC2OC[C@H](O)[C@H](O)[C@H]2O)cc1 (stereo partly drawn) [Compound 2, p-Aminobenzoic acid-N-L-arabinoside]	TA98 of Salmonella typhimurium	3 n/plate
CC1OC(Nc2ccccc2C(=O)[O-])C(O)C(O)C1O.[Na+] [Compound 20, o-Aminobenzoic acid-N-L-rhamnoside]	TA98 of Salmonella typhimurium	9 n/plate
O=C(O)c1ccc(NC2OC[C@@H](O)[C@H](O)[C@H]2O)cc1 (stereo partly drawn) [Compound 6, p-Aminobenzoic acid-N-D-xyloside]	TA98 of Salmonella typhimurium	4 n/plate
O=C([O-])c1ccccc1NC1OCC(O)C(O)C1O.[Na+] [Compound 4, o-Aminobenzoic acid-N-L-arabinoside]	TA98 of Salmonella typhimurium	4 n/plate
